- assayedSystem: Human GLP-1 receptor (Homo sapiens, UniProt P43220)
- Construct: expressed in transfected cells
- Sequence (P43220 24-463): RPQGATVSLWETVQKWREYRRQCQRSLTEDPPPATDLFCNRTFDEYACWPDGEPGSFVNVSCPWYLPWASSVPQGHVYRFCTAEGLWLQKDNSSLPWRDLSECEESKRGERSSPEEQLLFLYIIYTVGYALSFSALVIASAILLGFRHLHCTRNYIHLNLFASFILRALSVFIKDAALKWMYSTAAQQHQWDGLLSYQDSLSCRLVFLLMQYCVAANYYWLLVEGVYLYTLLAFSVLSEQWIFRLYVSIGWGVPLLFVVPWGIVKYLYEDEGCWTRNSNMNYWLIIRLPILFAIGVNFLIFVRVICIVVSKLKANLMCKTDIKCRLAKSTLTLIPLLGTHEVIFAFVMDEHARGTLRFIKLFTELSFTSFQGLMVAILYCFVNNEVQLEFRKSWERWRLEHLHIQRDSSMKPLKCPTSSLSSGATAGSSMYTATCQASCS
- methodDescription: Measurement of GLP-1 receptor agonist activity (cAMP assay)
- Format: cell-based
- testConditions: hGLP-1R/CHO-K1 cells, cAMP increase, 37° C. 1 hour
- Description: Test Example 1: (Measurement of GLP-1 Receptor Agonist Activity) Human GLP-1 receptor stably expressing cells (hGLP-1R/CHO-K1 cells) are cultured in an α-MEM medium (Sigma) containing 10% FBS (Hyclone), 2% GlutaMAX (Gibco), 1% G418 (Nacalai Tesque), and 1% Penicillin-Streptomycin Mixed Solution (Sigma) at 37° C. under 5% CO2 conditions, and recovered by treating a 10 fold diluted 5.0 g/l-trypsin/5.3 mmol/l-EDTA solution (Nacalai Tesque) and cryopreserved. […]
Reported values of EC50 for individual entries
measurementType: EC50 (nM)

In [3]: df
Out[3]:
                             smilesnotation  observedvalue
0  O=C(O)c1cc(Cl)c2nc(CN3CCc4cc(C(F)(F)F)c(OCc5ccc(Cl)cc5F)cc4C3)n(C[C@@H]3CCO3)c2c1           1.56
1  O=C(O)c1ccc2nc(CN3CCc4cc(Cl)c(OCc5ccc(Cl)cc5F)cc4C3)n(C[C@@H]3CCO3)c2c1             15
2  C[C@H]1c2cc(OCc3ccc(OC(F)F)cc3F)c(C(F)(F)F)cc2CCN1Cc1nc2c(F)cc(C(=O)O)cc2n1C[C@@H]1CCO1              1
